# Test system: UO-31
# test_description: GI50 of drug in presence of dasatinib; higher = less potent
# experimental_parameters: treatment: drug + dasatinib (fixed dose, not stated); 5 days
just bin them by GI50 of drug: low-valued = under 0.5 µM, mid-valued = from 0.5 µM up to 3 µM, high-valued = 3 µM and over

Inquiry: Which bin should I file CCN1CCN(c2ccc(Nc3cc(N(C)C(=O)Nc4c(Cl)c(OC)cc(OC)c4Cl)ncn3)cc2)CC1 [BGJ398 (NVP-BGJ398)] + Cc1nc(Nc2ncc(C(=O)Nc3c(C)cccc3Cl)s2)cc(N2CCN(CCO)CC2)n1 [dasatinib] under?
Reply text: mid-valued

Inquiry: Which bin should I file O=c1cc(-c2cccc3c2Sc2ccccc2S3)oc(N2CCOCC2)c1 + Cc1nc(Nc2ncc(C(=O)Nc3c(C)cccc3Cl)s2)cc(N2CCN(CCO)CC2)n1 [dasatinib] under?
Reply text: high-valued

Inquiry: Which bin should I file Nc1ncnc2c1c(-c1cccc(OCc3ccccc3)c1)cn2[C@H]1C[C@H](CN2CCCC2)C1 [NVP-ADW742] + Cc1nc(Nc2ncc(C(=O)Nc3c(C)cccc3Cl)s2)cc(N2CCN(CCO)CC2)n1 [dasatinib] under?
Reply text: mid-valued

Inquiry: Which bin should I file COc1cc(Nc2ncc(F)c(Nc3ccc4c(n3)N(COP(=O)([O-])[O-])C(=O)C(C)(C)O4)n2)cc(OC)c1OC.[Na+].[Na+] + Cc1nc(Nc2ncc(C(=O)Nc3c(C)cccc3Cl)s2)cc(N2CCN(CCO)CC2)n1 [dasatinib] under?
Reply text: mid-valued

Inquiry: Which bin should I file Nc1ccc(C(=O)Nc2cccc(-c3nc(N4CCOCC4)c4oc5ncccc5c4n3)c2)cn1 + Cc1nc(Nc2ncc(C(=O)Nc3c(C)cccc3Cl)s2)cc(N2CCN(CCO)CC2)n1 [dasatinib] under?
Reply text: mid-valued

Inquiry: Which bin should I file Nc1ncnc2c1c(-c1cnc3[nH]ccc3c1)nn2C1CCCC1 [PP-121] + Cc1nc(Nc2ncc(C(=O)Nc3c(C)cccc3Cl)s2)cc(N2CCN(CCO)CC2)n1 [dasatinib] under?
Reply text: mid-valued

Inquiry: Which bin should I file CS(=O)(=O)N1CCN(Cc2cc3nc(-c4cccc5[nH]ncc45)nc(N4CCOCC4)c3s2)CC1 [GDC-0941] + Cc1nc(Nc2ncc(C(=O)Nc3c(C)cccc3Cl)s2)cc(N2CCN(CCO)CC2)n1 [dasatinib] under?
Reply text: low-valued

Inquiry: Which bin should I file O=C(Nc1cccc(Nc2ncc(Br)c(NCCc3cnc[nH]3)n2)c1)N1CCCC1 [BX-912] + Cc1nc(Nc2ncc(C(=O)Nc3c(C)cccc3Cl)s2)cc(N2CCN(CCO)CC2)n1 [dasatinib] under?
Reply text: high-valued

Inquiry: Which bin should I file O=C(c1ccc(/C=C/c2n[nH]c3ccccc23)cc1)N1CCNCC1 [KW 2449] + Cc1nc(Nc2ncc(C(=O)Nc3c(C)cccc3Cl)s2)cc(N2CCN(CCO)CC2)n1 [dasatinib] under?
Reply text: high-valued

Inquiry: Which bin should I file COCC(=O)NC/C=C/c1ccc2ncnc(Nc3ccc(Oc4ccc(C)nc4)c(C)c3)c2c1 + Cc1nc(Nc2ncc(C(=O)Nc3c(C)cccc3Cl)s2)cc(N2CCN(CCO)CC2)n1 [dasatinib] under?
Reply text: high-valued

Inquiry: Which bin should I file COC1=CC(c2cc3ccccc3[nH]2)=N/C1=C\c1[nH]c(C)cc1C.CS(=O)(=O)O [Obatoclax mesylate (GX15-070)] + Cc1nc(Nc2ncc(C(=O)Nc3c(C)cccc3Cl)s2)cc(N2CCN(CCO)CC2)n1 [dasatinib] under?
Reply text: low-valued

Inquiry: Which bin should I file NC(=O)Nc1cc(-c2cccc(F)c2)sc1C(=O)N[C@H]1CCCNC1 [AZD7762] + Cc1nc(Nc2ncc(C(=O)Nc3c(C)cccc3Cl)s2)cc(N2CCN(CCO)CC2)n1 [dasatinib] under?
Reply text: low-valued

Inquiry: Which bin should I file CCOC(=O)C1=C(N)Oc2ccc(Br)cc2[C@H]1[C@H](C#N)C(=O)OCC [HA14-1] + Cc1nc(Nc2ncc(C(=O)Nc3c(C)cccc3Cl)s2)cc(N2CCN(CCO)CC2)n1 [dasatinib] under?
Reply text: high-valued

Inquiry: Which bin should I file CCOc1cc2ncc(C#N)c(Nc3ccc(F)c(Cl)c3)c2cc1NC(=O)/C=C/CN(C)C [Pelitinib (EKB-569)] + Cc1nc(Nc2ncc(C(=O)Nc3c(C)cccc3Cl)s2)cc(N2CCN(CCO)CC2)n1 [dasatinib] under?
Reply text: low-valued

Inquiry: Which bin should I file NCC(=O)Nc1ccc(-n2nc(C(F)(F)F)cc2-c2ccc3c(ccc4ccccc43)c2)cc1 + Cc1nc(Nc2ncc(C(=O)Nc3c(C)cccc3Cl)s2)cc(N2CCN(CCO)CC2)n1 [dasatinib] under?
Reply text: mid-valued

Inquiry: Which bin should I file Cl.N=C(N)NC(=N)NCCc1ccccc1 [Phenformin hydrochloride] + Cc1nc(Nc2ncc(C(=O)Nc3c(C)cccc3Cl)s2)cc(N2CCN(CCO)CC2)n1 [dasatinib] under?
Reply text: high-valued

Inquiry: Which bin should I file OCCn1cc(-c2ccc3c(c2)CC/C3=N\O)c(-c2ccncc2)n1 [GDC-0879] + Cc1nc(Nc2ncc(C(=O)Nc3c(C)cccc3Cl)s2)cc(N2CCN(CCO)CC2)n1 [dasatinib] under?
Reply text: high-valued

Inquiry: Which bin should I file C[C@]1(O)C[C@@H](c2nc(-c3ccc4ccc(-c5ccccc5)nc4c3)c3c(N)nccn32)C1 [Linsitinib (OSI-906)] + Cc1nc(Nc2ncc(C(=O)Nc3c(C)cccc3Cl)s2)cc(N2CCN(CCO)CC2)n1 [dasatinib] under?
Reply text: high-valued

Origin of measurements: the supplement of paper PMC8149375
